test system: biotinyl-Ile-oxazolone; experiment: self-aminoacylation, catalytic enhancement (BIO) (fold over background); higher = more active; k-Seq, kA / k0A0; sequences stand for … in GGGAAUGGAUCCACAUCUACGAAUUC…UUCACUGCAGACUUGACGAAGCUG
Fewer inactive variants are shown than the library holds.

| sequence chain | self-aminoacylation |
| --- | --- |
| CUACUUAAUACAAUCGGUCUG [Fam1A.1 aminoacylation ribozyme variant] | 0.782 |
| AAAUUUUCUAAUAGUCGCAAG [Fam3.1 aminoacylation ribozyme variant] | 2.15 |
| CCUCACUUCAAGCAAUUGGUC [Fam1B.1 aminoacylation ribozyme variant] | 0.654 |
| CCAUACAUCAAGCAAUCGGUC [Fam1B.1 aminoacylation ribozyme variant] | 1.04 |
| AAGUGUGCUAAUAGUCCCAAG [Fam3.1 aminoacylation ribozyme variant] | 1.34 |
| AUUCACCUAGGUCAUCGGCUU [Fam2.2 aminoacylation ribozyme variant] | 2.1 |
| AUUACCCUGAUUAUCGAGUGA [Fam2.1 aminoacylation ribozyme variant] | 7.51 |
| AUCCACCUAGGUAAUCGGGUG [Fam2.2 aminoacylation ribozyme variant] | 3 |
| AUUCUCCUAGGUCAUCCGGUG [Fam2.2 aminoacylation ribozyme variant] | 6.71 |

###

self-aminoacylation: recorded values
test system: biotinyl-Ile-oxazolone; assay: self-aminoacylation, catalytic enhancement (BIO) (fold over background); higher = more active; k-Seq, kA / k0A0; sequences stand for … in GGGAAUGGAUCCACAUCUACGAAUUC…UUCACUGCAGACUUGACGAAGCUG
Fewer inactive variants are shown than the library holds.
quantity name: self-aminoacylation

| sequence chain | obs value |
| --- | --- |
| AAGUUUGCUAAUAGUCGCAAG [Fam3.1 aminoacylation ribozyme variant] | 1.33 |
| AUUCAUCUAGGUAAUCGGGUG [Fam2.2 aminoacylation ribozyme variant] | 1.95 |
| AAGUUUGAUAAUAGUCGCAAA [Fam3.1 aminoacylation ribozyme variant] | 1.18 |
| AAGUUUGCUAAUAGGCGGAAG [Fam3.1 aminoacylation ribozyme variant] | 0.806 |
| AUUACCCUGGAAAUCGAGUGA [Fam2.1 aminoacylation ribozyme variant] | 8.3 |
| AUUACACAGGUCAUCGAGUGA [Fam2.1 aminoacylation ribozyme variant] | 2.5 |
| ACGUUUGCUAAUAGUCGCAAC [Fam3.1 aminoacylation ribozyme variant] | 1.36 |
| AUUACCCCGGUCAUCGAGUGU [Fam2.1 aminoacylation ribozyme variant] | 1.56 |
| AUUACCCUGGUCCUGGAGUGA [Fam2.1 aminoacylation ribozyme variant] | 2.07 |

###

test system: biotinyl-Phe-oxazolone; test: self-aminoacylation, catalytic enhancement (BFO) (fold over background); higher = more active; k-Seq, kA / k0A0; sequences stand for … in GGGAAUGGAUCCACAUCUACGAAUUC…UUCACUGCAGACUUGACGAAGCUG
Variants at the floor of the assay were thinned out.

| sequence chain | experimental target | self-aminoacylation |
| --- | --- | --- |
| AUUACCCUGGUCAUCCAGGGA [Fam2.1 aminoacylation ribozyme variant] | biotinyl-Phe-oxazolone | 7.32 |
| CCACCCUACAAGCAAUCGGUC [Fam1B.1 aminoacylation ribozyme variant] | biotinyl-Phe-oxazolone | 0.931 |
| AAGUGUGCUAAUAGUCGUAAG [Fam3.1 aminoacylation ribozyme variant] | biotinyl-Phe-oxazolone | 28 |
| AUUACCCCGGUCAUCGAGGGA [Fam2.1 aminoacylation ribozyme variant] | biotinyl-Phe-oxazolone | 2.68 |
| AAGUUUGAUAAUAGUCGCAAC [Fam3.1 aminoacylation ribozyme variant] | biotinyl-Phe-oxazolone | 1.27 |
| AAGCUUGCUAAUAGUCCCAAG [Fam3.1 aminoacylation ribozyme variant] | biotinyl-Phe-oxazolone | 3.57 |
| AUUACCCUCGUCCUCGAGUGA [Fam2.1 aminoacylation ribozyme variant] | biotinyl-Phe-oxazolone | 34.7 |
| AUUACCCUAGUAAUCGAGUGA [Fam2.1 aminoacylation ribozyme variant] | biotinyl-Phe-oxazolone | 46.5 |
| CUACUUCAAACCAUCGAUCUG [Fam1A.1 aminoacylation ribozyme variant] | biotinyl-Phe-oxazolone | 0.733 |
| AUCCACUUAGGUCAUCGGGUG [Fam2.2 aminoacylation ribozyme variant] | biotinyl-Phe-oxazolone | 63.8 |
| AAUACCGUGGUCAUCGAGUGA [Fam2.1 aminoacylation ribozyme variant] | biotinyl-Phe-oxazolone | 26.4 |
| AUUACCCUGGUCAGCGCGUGA [Fam2.1 aminoacylation ribozyme variant] | biotinyl-Phe-oxazolone | 35.3 |
| AUUAAUCUGGUCAUCGAGUGA [Fam2.1 aminoacylation ribozyme variant] | biotinyl-Phe-oxazolone | 15.6 |
| AAGUUUGCUAAUAGACGCUAG [Fam3.1 aminoacylation ribozyme variant] | biotinyl-Phe-oxazolone | 0.777 |
| CCACACGUCAAGCACUCGGUC [Fam1B.1 aminoacylation ribozyme variant] | biotinyl-Phe-oxazolone | 2.16 |
| AAGCUUGCUAAUAGGCGCAAG [Fam3.1 aminoacylation ribozyme variant] | biotinyl-Phe-oxazolone | 1.46 |
| AUUCACCUAGGUCAUGGGGUC [Fam2.2 aminoacylation ribozyme variant] | biotinyl-Phe-oxazolone | 1.36 |
| AAGUUUGUUAGUAGUCGCAAG [Fam3.1 aminoacylation ribozyme variant] | biotinyl-Phe-oxazolone | 1.02 |
| CCACAGUUCAAGCAAUCGGUA [Fam1B.1 aminoacylation ribozyme variant] | biotinyl-Phe-oxazolone | 0.787 |
| AUUACCCUGGUCAUUAAGUGA [Fam2.1 aminoacylation ribozyme variant] | biotinyl-Phe-oxazolone | 55.5 |
| AUUCCCCUGGUCAACGAGUGA [Fam2.1 aminoacylation ribozyme variant] | biotinyl-Phe-oxazolone | 49.5 |
| AUCCACCUAGGUCAUCGGGCG [Fam2.2 aminoacylation ribozyme variant] | biotinyl-Phe-oxazolone | 20.9 |
| AAGUCUGCUAAUAGUCGCUAG [Fam3.1 aminoacylation ribozyme variant] | biotinyl-Phe-oxazolone | 3.35 |
| GAGUUUGCUAAUAGUCGGAAG [Fam3.1 aminoacylation ribozyme variant] | biotinyl-Phe-oxazolone | 11.6 |
| CCACGGUUCAAGCAAUCGGUC [Fam1B.1 aminoacylation ribozyme variant] | biotinyl-Phe-oxazolone | 2.64 |
| AUUCACCUAGGUCAUCAGGAG [Fam2.2 aminoacylation ribozyme variant] | biotinyl-Phe-oxazolone | 0.931 |
| CUACUUCAAACAAUCGUUCGG [Fam1A.1 aminoacylation ribozyme variant] | biotinyl-Phe-oxazolone | 0.675 |
| AGUCACAUAGGUCAUCGGGUG [Fam2.2 aminoacylation ribozyme variant] | biotinyl-Phe-oxazolone | 63.6 |
| AAUUUUGCUAAUAGUCGCAUG [Fam3.1 aminoacylation ribozyme variant] | biotinyl-Phe-oxazolone | 3.03 |
| AAGUUUGCUAAAAGUCGCAGG [Fam3.1 aminoacylation ribozyme variant] | biotinyl-Phe-oxazolone | 1.77 |
| CGACUUCAAACAAUCGGUAUG [Fam1A.1 aminoacylation ribozyme variant] | biotinyl-Phe-oxazolone | 10.8 |
| AAGUCUGCUAAUAGUCGCGAG [Fam3.1 aminoacylation ribozyme variant] | biotinyl-Phe-oxazolone | 5.39 |
| AGACACUUCAAGCAAUCGGUC [Fam1B.1 aminoacylation ribozyme variant] | biotinyl-Phe-oxazolone | 19 |
| AUUACCCUGGUCAUCGGGUAA [Fam2.1 aminoacylation ribozyme variant] | biotinyl-Phe-oxazolone | 208 |
| AUUCACCUAGGUCAUCGCCUG [Fam2.2 aminoacylation ribozyme variant] | biotinyl-Phe-oxazolone | 8.71 |
